molecules and their reported activity at 20 µM
- Test system: HH cells (human cutaneous T-cell lymphoma cells)
- assay.protocol: Proliferation assay (alamarBlue) with HH cells
- Type: cell-based
- conditions: Table 34, compound at 20 μM, read-out: Activity Range (AVEw, weighted arithmetic mean of normalized fluorescence intensity, DMSO = 1.0)

CCOC(=O)c1ccc(Oc2ccc(CCN(C)C)cc2)cc1 = 60 to 70%
C=Cc1cc(C2CCCCC2)ccc1Oc1ccc(C(=O)OCC)cc1 = 60 to 70%
Oc1ccc(C=Cc2cc(O)cc(O)c2)cc1 [RES, resveratrol, reference compound] = 60%
CN(Cc1cnc2nc(N)nc(N)c2n1)c1ccc(C(=O)N[C@@H](CCC(=O)O)C(=O)O)cc1 [MTREX, Methotrexate, reference compound] = 40%
OC1(c2ccc(Oc3ccc(C45CC6CC(CC(C6)C4)C5)cc3)cc2)COC1 = 70 to 80%
c1ccc(COC2(c3ccc(Oc4ccc(C5CCCCC5)cc4)cc3)CNC2)cc1 = 0 to 20%
CCOC(=O)c1ccc(Oc2ccc(C3CCN(C)CC3)cc2)cc1 = 40 to 60%

Entry under test: COC1(c2ccc(Oc3ccc(C45CC6CC(CC(C6)C4)C5)cc3)cc2)CN(C)C1 . Its activity at 20 µM was 0 to 20%

All values here come from patent US20240140895A1.
